# Test system: CAKI-1 renal
# test_summary: NCI-60 one-dose screen, 48 h (100 = growth as untreated, 0 = no growth, -100 = all killed)
# condition_info: 10 µM unless noted
The panel holds about 83,000 compounds, 20% with a hit somewhere; the sample as a whole holds those more often.
value_kind: growth (%)
Numeric answer only, unit % assumed.

Record excerpt, results attached:
[[record]]
molecule = "CCN(CC)Cc1cc(Nc2ccnc3cc(Cl)ccc23)cc(-c2ccc(Cl)cc2)c1O"
target = "CAKI-1 renal"
output_unit = "%"
test_result = 54.8

[[record]]
molecule = "CN(C)CCOc1nc2c3ccncc3cc(-c3cccc(Cl)c3)c2c2cnccc12"
target = "CAKI-1 renal"
output_unit = "%"
test_result = 29.6

[[record]]
molecule = "CCc1ccc2c(c1)N(CCO)C1=C(C(=O)OC1)C2c1cccc(Br)c1 (stereo unspecified)"
target = "CAKI-1 renal"
output_unit = "%"
test_result = 26.1

[[record]]
molecule = "COc1ccc2[nH]c(O)c(/C=c3/ccc4c(c3)N=C(c3ccc(C(F)(F)F)cc3)N=4)c2c1"
target = "CAKI-1 renal"
output_unit = "%"
test_result = 55.6

[[record]]
molecule = "O=C(C=P(c1ccccc1)(c1ccccc1)c1ccccc1)CCl"
target = "CAKI-1 renal"
output_unit = "%"
test_result = -74.9

[[record]]
molecule = "COCCn1c(Nc2ccc(C(=O)NO)cc2)nc2ccccc21"
target = "CAKI-1 renal"
output_unit = "%"
test_result = 47.3

[[record]]
molecule = "O=c1[nH]c2ccccc2n2cc3cccnc3c12"
target = "CAKI-1 renal"
output_unit = "%"
test_result = 68.1

[[record]]
molecule = "COc1ccc2[nH]c(C(=O)OCc3ccc4cccc(O)c4n3)cc2c1"
target = "CAKI-1 renal"
output_unit = "%"
test_result = -97.6


Query: For the record COc1ccc(-c2cnc3ccnn3c2-c2cc(OC)c(OC)c(OC)c2)cc1 , what value of growth is listed for CAKI-1 renal?
Result: 46.5

Query: Moving on to the next molecule: COc1ccc(NC(=O)c2ccc(C(F)(F)F)nc2Nc2ccc(Cl)cc2C)cc1Cl
Result: 19.9

Query: Moving on to the next molecule: COc1cc(-c2csc(NC(=O)Nc3cccc(C(F)(F)F)c3)n2)cc(OC)c1OC
Result: 48.2

---

# Tested on: EKVX NSCLC
# test_summary: NCI-60 one-dose screen, 48 h (100 = growth as untreated, 0 = no growth, -100 = all killed)
# condition_info: 10 µM unless noted
Compounds without any hit were thinned out: in the full panel of roughly 83,000, 20% have a hit.
Rule: growth under 90% gives Not fulfilled, otherwise Fulfilled.

Here's what some known entries look like.
[[record]]
compound = "CC(=O)OC1Oc2ccccc2-c2oc3nc(=N)n(C)c-3cc21 (stereo not drawn)"
category = "Fulfilled"

[[record]]
compound = "Fc1[nH]nc2ccc([C@@H]3Nc4ccc5[nH]ncc5c4[C@H]4C5CCC(C5)[C@@H]34)cc12 (stereo partly drawn)"
category = "Not fulfilled"

[[record]]
compound = "CCOc1ccc([C@@H]2[C@@H](Oc3ccccc3)C(=O)N2c2cc(OC)c(OC)c(OC)c2)cc1"
category = "Not fulfilled"


Query: State whether the measured growth reaches 90%, counting equality as reaching it, for Cc1n(Cc2ccc3ccccc3n2)cc[n+]1Cc1ccc2ccccc2n1
Result: Not fulfilled

Query: Moving on to the next compound: CCN(CC)Cc1cc(Nc2ccnc3cc(Cl)ccc23)cc(-c2ccc(Cl)cc2)c1O
Result: Not fulfilled

Query: Moving on to the next compound: O=C(C(=O)c1cccnc1)c1cccnc1
Result: Fulfilled

Query: Moving on to the next compound: COc1ccc(Sc2[nH]c(C=O)c3ccccc23)cc1
Result: Not fulfilled

Query: Moving on to the next compound: CN1CCN(Cc2ccc(NC(=O)c3cccc(C#Cc4cnc(N)c5ncccc45)c3F)cc2C(F)(F)F)CC1
Result: Not fulfilled

---

# System: KM12 colon
# test_summary: NCI-60 one-dose screen, 48 h
# condition_info: 10 µM unless noted
Compounds without any hit were thinned out: in the full panel of roughly 83,000, 20% have a hit. Activity calls are given as the source filed them. How the source made its calls: active means growth percent below 10; inactive means the rest.
Your response should consist of one outcome taken from YES for active, NO for inactive

Here's what some known entries look like.
[[record]]
compound = "CCN1CCN(Cc2ccc(NC(=O)c3nc4ccc5[nH]ncc5c4c4c3CCCC4)cc2C(F)(F)F)CC1"
category = "YES"

[[record]]
compound = "CCCCn1c(-c2ccc(F)cc2)nc2cc(OC)c(OC)cc2c1=O"
category = "NO"


Query: Dear colleague, could you share the recorded outcome for CC[C@H](Nc1nc(C)nc(N)c1C#N)c1nc2cccc(NCc3ccc(C(=O)NO)cc3)c2c(=O)n1-c1ccccc1 when you have a moment?
Result: NO

Query: Moving on to the next compound: O=C(NO)c1ccc(NCc2csc3ccccc23)cc1
Result: NO

Query: Moving on to the next compound: CC[C@H](Nc1nc(N)nc(N)c1Cl)c1nc2cccc(NCc3ccc(C(=O)NO)cc3)c2c(=O)n1-c1ccccc1
Result: YES

---

# Tested on: LOX IMVI melanoma
# test_summary: NCI-60 one-dose screen, 48 h
# condition_info: 10 µM unless noted
Compounds without any hit were thinned out: in the full panel of roughly 83,000, 20% have a hit. Active and inactive are the calls of the source. Rule for the calls: active = growth percent below 10; inactive = the rest.
Your response should consist of one outcome taken from active, inactive

[[record]]
compound = "COc1cccc(CC(C)=C(c2ccc(OCCCN(C)C)cc2)c2ccc(OCCCN(C)C)cc2)c1"
category = "active"


Query: Dear colleague, could you share the recorded outcome for C/C(=N\OC(=O)Nc1cccc(Cl)c1)c1ccccc1 when you have a moment?
Result: inactive

Query: Moving on to the next compound: CCCCn1c(C)nc2ccc(Nc3nc(Cl)nc4nc[nH]c34)cc21
Result: inactive

---

# System: COLO 205 colon
# test_summary: NCI-60 one-dose screen, 48 h (100 = growth as untreated, 0 = no growth, -100 = all killed)
# condition_info: 10 µM unless noted
Compounds without any hit were thinned out: in the full panel of roughly 83,000, 20% have a hit.
value_kind: growth (%)
Numeric answer only, unit % assumed.

Record excerpt, results attached:
[[record]]
compound = "CCCCCc1c(C)[nH]c(/C=C2\\N=C(c3ccc[nH]3)C=C2CC)c1C"
value_kind = "growth"
output_unit = "%"
test_result = -87.7

[[record]]
compound = "Nc1ccc(C(OC(=O)c2cc3ccccc3c(Cc3c(O)c(C(=O)OC(c4ccc(N)cc4)(c4ccc(N)cc4)c4ccc(N)cc4)cc4ccccc34)c2O)(c2ccc(N)cc2)c2ccc(N)cc2)cc1"
value_kind = "growth"
output_unit = "%"
test_result = -83.7

[[record]]
compound = "Cc1cc(N=Nc2ccc(-c3ccc(N=Nc4ccc(O)c(C(=O)O)c4)cc3)cc2)c(N)c(N=Nc2ccc(C(=O)O)cc2)c1N"
value_kind = "growth"
output_unit = "%"
test_result = 108

[[record]]
compound = "O=C(Nc1ccc2[nH]c3ccccc3c2c1)c1ccccc1Cl"
value_kind = "growth"
output_unit = "%"
test_result = 14

[[record]]
compound = "COCCOCCOCc1n(Cc2ccc3ccccc3n2)c2ccccc2[n+]1Cc1ccc2ccccc2c1"
value_kind = "growth"
output_unit = "%"
test_result = -73.3


Query: Dear colleague, I am looking for the recorded growth of the following compound: C=CCn1c(SCC(=O)Nc2ccc(C(=O)/C=C/c3ccc(Cl)cc3)cc2)nnc1-c1ccc(Cl)cc1
Result: 98.3

Query: Moving on to the next compound: C=CCn1c(SCC(=O)Nc2ccc(/C(C)=N\O)cc2)nnc1-c1cc(-c2ccc(Cl)cc2)nc2ccccc12
Result: 27.8

Query: Moving on to the next compound: Cc1ccccc1N1C(c2ccccc2)=NNC12C=CC(=O)c1c(O)cccc12 (stereo not drawn)
Result: 95.7

Query: Moving on to the next compound: CC(=O)c1cccc(Nc2ncnc3ccc(NC(=O)c4ccco4)cc23)c1
Result: 98.5

---

Each entry below carries its reported growth.
# System: CCRF-CEM leukemia
# test_summary: NCI-60 one-dose screen, 48 h (100 = growth as untreated, 0 = no growth, -100 = all killed)
# condition_info: 10 µM unless noted
About 83,000 compounds went through this panel and 20% of them were active in at least one assay; those are over-represented in the sample as a whole. Active and inactive are the calls of the source. Rule for the calls: active = growth percent below 10; inactive = the rest.

[[record]]
compound = "COc1cc2c(cc1OC)C(=O)OC2"
test_result = "124% (inactive)"


Query: Dear colleague, I am looking for the recorded growth of the following compound: Clc1ccc(Nc2ncnc3c2sc2ncccc23)cc1
Result: 21.2% (inactive)

Query: Moving on to the next compound: CCc1oc2ccccc2c1C(=O)c1cc(I)c(O)c(I)c1
Result: 66.2% (inactive)

---

# System: UACC-257 melanoma
# test_summary: NCI-60 one-dose screen, 48 h
# condition_info: 10 µM unless noted
This is part of a sample that, as a whole, favours compounds with a hit. Of some 83,000 tested, about 20% had one in any assay. The source made the active and inactive calls. Rule for the calls: active = growth percent below 10; inactive = the rest.
Your response should consist of one outcome taken from 1.0 = active, 0.0 = inactive

Here's what some known entries look like.
[[record]]
molecule = "O=c1c2sc3ccccc3c2nnn1-c1ccc(F)c(Cl)c1"
category = 0.0

[[record]]
molecule = "CC(=O)[C@H]1CC[C@H]2[C@@H]3CC[C@H]4CC=CC[C@]4(C)[C@H]3CC[C@]12C"
category = 0.0

[[record]]
molecule = "O=C(O)c1ccccc1N=Cc1ccccc1"
category = 0.0

[[record]]
molecule = "Cc1nc2c(-c3cnc(N)nc3)nc(N3CCOCC3)nc2n1C(C)C"
category = 1.0

[[record]]
molecule = "CCOc1cccc(/C=N/NC(=O)c2ccc(Nc3ccnc(C(F)(F)F)c3)cc2)c1O"
category = 0.0

[[record]]
molecule = "COc1cccc(/C=N/N=C(N)N)c1"
category = 0.0


Query: Dear colleague, could you share the recorded outcome for O=C(Nc1cnc(C(F)(F)F)cn1)c1cc(Cl)ccc1O when you have a moment?
Result: 1.0
